# System: NCI-H226 lung
# experiment summary: NCI-60 one-dose screen, 48 h
# experimental parameters: 10 µM unless noted
This is part of a sample that, as a whole, favours compounds with a hit. Of some 83,000 tested, about 20% had one in any assay. The source made the active and inactive calls. How the source made its calls: active means growth percent below 10; inactive means the rest.
Choose the fitting class; nothing outside active, inactive is accepted.

molecule	label
O=C(NC1CC(F)C1)c1cc2cccnc2n1-c1ccc(Cl)c(Cl)c1 (stereo not drawn)	inactive

Here's the next entry for you.
Incoming: Outcome logged for CCNC(=O)Oc1ccc(/C(=C(/CC)Cc2ccccc2)c2ccc(OCCN3CCCC3)cc2)cc1 in this assay:
Outgoing: inactive

###

# Tested on: ACHN renal
# experiment summary: NCI-60 one-dose screen, 48 h
# experimental parameters: 10 µM unless noted
This is part of a sample that, as a whole, favours compounds with a hit. Of some 83,000 tested, about 20% had one in any assay. Calls of active or inactive are those of the source. Rule for the calls: active = growth percent below 10; inactive = the rest.
# valid calls are active, inactive; nothing else

Examples with answers:
molecule	assayed system	label
N#Cc1c(-c2ccccc2)nc(SCc2nnc(-c3ccc(Cl)cc3)o2)[nH]c1=O	ACHN renal	inactive
Cc1c(Cl)cccc1C(=O)Nc1nc2c(s1)CN(C(=O)c1ccc(C(F)(F)F)cc1)CC2	ACHN renal	inactive
COC(=O)c1c2c(n3ccccc13)C(=O)c1ccccc1C2=O	ACHN renal	inactive
O=[N+]([O-])c1ccc(-c2cn3nc(-c4c[nH]c5ccccc45)sc3n2)cc1	ACHN renal	inactive
CCN1CCN(CC(=O)Nc2ccc(-c3cn4c(n3)sc3cc(Oc5ccnc(C(=O)NC)c5)ccc34)cc2)CC1	ACHN renal	inactive

Incoming: What classification did CC1=CC(c2ccco2)=C2C(N)=NNC2N1 (centres undefined) end up with in this test?
Outgoing: inactive

Incoming: One more molecule: COc1ccc(C(=O)Cn2c(C(=O)c3ccc(Cl)cc3)nc3ccccc32)cc1
Outgoing: inactive

Incoming: What about C/C(=N\O)c1ccc(NC(=O)CSc2nnc(-c3cc(-c4ccc(S(N)(=O)=O)cc4)nc4ccccc34)n2-c2ccccc2)cc1 ?
Outgoing: inactive
